Test: chemical genetic growth profiling, strain panel (AID 1159580);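 note: tested at 20 µM; growth read once vehicle control cultures reached saturation at 30 °C; 1 = growth at the plate median or of vehicle wells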
Settings: S. cerevisiae deletion strains, growth OD, locus YBR023C, strain chs3, hits give low values
Out of some 5,500 compounds screened, about 2,000 (36%) were called active. Roughly 18% stayed inconclusive and do not appear here. Some of the results follow.
reportedMetric: normalized growth

Request: Dear colleague, I am looking for the recorded normalized growth of the following compound: `N=c1nc(N2CCCCC2)cc(N)n1O`
Result: 0.985 (inactive)

Request: Quick one: normalized growth of `O=c1ccc2ccccc2o1` ?
Result: 0.996 (inactive)

Request: Query (compound): `CCCCOc1ccc(CC(=O)NO)cc1` ; field requested: normalized growth
Result: 0.993 (inactive)

Request: Request the reported normalized growth associated with `CCC1(c2ccccc2)C(=O)NCNC1=O`
Result: 1.01 (inactive)

Request: Give its normalized growth value. Item: `O=c1ccc2cc(O)c(O)cc2o1`
Result: 1 (inactive)

Request: Value lookup for normalized growth; key = `COc1ccc2cc1Oc1ccc(cc1)C[C@H]1c3cc(c(OC)cc3CCN1C)Oc1c(OC)c(OC)cc3c1[C@H](C2)N(C)CC3`
Result: 1.01 (inactive)

Request: Fill blank: measured normalized growth of the compound CCC1(C)CC(=O)NC1=O (stereo not drawn) is ____.
Result: 0.958 (inactive)

Request: Could you tell me which normalized growth is on file for `OCCN(CCO)c1nc(N2CCCCC2)c2nc(N(CCO)CCO)nc(N3CCCCC3)c2n1` ?
Result: 1 (inactive)

###

Assay: chemical genetic growth profiling, strain panel (AID 1159580)
Settings: S. cerevisiae deletion strains, growth OD, locus YAL040C, strain CLN3, hits give low values
The whole screen tested about 5,500 compounds, of which about 2,000 (36%) were called active. Roughly 18% stayed inconclusive and do not appear here. The list shows a part of the results.
# if measured normalized growth < 1: yes  # else: no

Request: Is the reported normalized growth for `CCCC(=O)NCCc1c2n(c3ccc(OC)cc13)Cc1ccccc1-2` strictly below 1?
Result: no

Request: Quick check: does `Oc1ccc(O)cc1` have normalized growth under 1?
Result: no

Request: Report whether reported normalized growth is lower than 1 (strictly) for `Nc1nc2ccc(Cl)cc2c2nc(-c3ccco3)nn12`
Result: yes

###

So I've got a bunch of molecules here, and I need their normalized growth values.
Assay: chemical genetic growth profiling, strain panel (AID 1159580);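 note: tested at 20 µM; growth read once vehicle control cultures reached saturation at 30 °C; 1 = growth at the plate median or of vehicle wells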
Conditions: S. cerevisiae deletion strains, growth OD, locus YGL227W, strain vid30, hits give low values
Out of some 5,500 compounds screened, about 2,000 (36%) were called active. Roughly 18% stayed inconclusive and do not appear here. The list shows a part of the results.
// return a plain number; no unit text

Request: Entry `COc1cc(OC)c2c(c1)O[C@H](c1ccc(OC)c(OC)c1)[C@@H](O)C2` : reported normalized growth = ?
Result: 0.982

Request: Fill in the blank: the reported normalized growth of `C1CCc2nnnn2CC1` is ____.
Result: 1

Request: Which normalized growth is listed for `C[C@@H](N)CO` ?
Result: 0.973

Request: So what's the measured normalized growth for this one? COc1cc2c(cc1OC)C(=O)C(CC1CCN(Cc3ccccc3)CC1)C2 (stereo not given)
Result: 1.06

Request: // lookup normalized growth for `CC(=O)OCC(CCn1cnc2cnc(N)nc21)COC(C)=O`
Result: 0.979

Request: Entry `CC[C@H]1OC(=O)C[C@@H](O)[C@H](C)[C@@H](O[C@@H]2O[C@H](C)[C@@H](O[C@H]3C[C@@](C)(O)[C@@H](O)[C@H](C)O3)[C@H](N(C)C)[C@H]2O)[C@@H](CC=O)C[C@@H](C)C(=O)/C=C/C(C)=C/[C@@H]1CO[C@@H]1O[C@H](C)[C@@H](O)[C@@H](OC)[C@H]1OC` has what normalized growth?
Result: 0.988

Request: I'd like to know its normalized growth. The molecule in question is `O=C(O)c1cc(=O)c2ccc(Cl)cc2[nH]1`
Result: 1.04

Request: // query normalized growth value for entry `COc1ccc2c(c1)OC[C@@H](Cc1ccc(OC)c(OC)c1)[C@H]2O`
Result: 0.999

Request: Reported normalized growth, molecule CNC1(C)C2CCC(C2)C1(C)C (stereo not given) : ____
Result: 0.987

Request: Item under review: CCc1ccc(CCOc2ccc(CC3SC(=O)NC3=O)cc2)nc1 (stereo not given) . Reported normalized growth?
Result: 0.995

###

Give normalized growth for every item shown.
Test: chemical genetic growth profiling, strain panel (AID 1159580);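 note: tested at 20 µM; growth read once vehicle control cultures reached saturation at 30 °C; 1 = growth at the plate median or of vehicle wells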
Conditions: S. cerevisiae deletion strains, growth OD, locus YNL161W, strain CBK1, hits give low values
Out of some 5,500 compounds screened, about 2,000 (36%) were called active. Inconclusive results (about 18%) are left out. The list shows a part of the results.
Please state the value as a number alone, without comment.

Request: Please look up its normalized growth: `C=CC(=O)N1CCc2cc([N+](=O)[O-])ccc21`
Result: 0.737

Request: Find the recorded normalized growth belonging to `CC1=CC(=O)C(CCOCCC2=CC(=O)C(C)=CC2=O)=CC1=O` and report it.
Result: 0.986

Request: So what's the measured normalized growth for this one? `O=C(C=C(O)c1ccc(Br)cc1)C(=O)Nc1ccccc1`
Result: 0.77

Request: Endpoint output: normalized growth of `O=C(NCc1ccco1)c1ccc(Oc2cc(Cl)cc(Cl)c2)o1` . Value?
Result: 0.967

Request: Form field: reported normalized growth of `NC(N)=Nc1nc(-c2cc(Cl)sc2Cl)cs1`
Result: 0.989

Request: Find the recorded normalized growth belonging to `O=C(CCN1CCCCC1)c1ccc(-c2ccccc2)cc1` and report it.
Result: 0.991

Request: Would you kindly share the measured normalized growth for `O=C(Nc1c(Br)c(C2CC2)nn1-c1ccccc1)C(Cl)(Cl)Cl` ?
Result: 0.925

###

Experiment: chemical genetic growth profiling, strain panel (AID 1159580);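 note: tested at 20 µM; growth read once vehicle control cultures reached saturation at 30 °C; 1 = growth at the plate median or of vehicle wells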
Conditions: S. cerevisiae deletion strains, growth OD, locus YPR167C, strain met16
The whole screen tested about 5,500 compounds, of which about 2,000 (36%) were called active. Another 18% or so got no clear call; they are omitted. No stated cut-off is given here; in the data, active means normalized growth mostly below about 0.91 (no sharp cut-off); inconclusive means no clear call, values can overlap the other calls; inactive means mostly above about 0.92. The list shows a part of the results.
Lab note: assign the record to one of active, inactive

Request: Assay result, entry O=C(O)C1CC([C@@H]2CCCCN2)CN2CCCCC12 (some centres undefined) — outcome?
Result: inactive

Request: What outcome does the record of this test show for `C=CC1=C(C(=O)O)N2C(=O)[C@@H](NC(=O)/C(=N/O)c3csc(N)n3)[C@H]2SC1` ?
Result: inactive

Request: Query: recorded result category for `COc1cc(O)c(C(=O)c2ccccc2)cc1O` in this test
Result: inactive

Request: How did this test come out for CO[C@H]1C[C@H](O[C@H]2[C@H](C)[C@@H](OC3O[C@H](C)C[C@H](N(C)C)[C@H]3O)[C@@H](C)C[C@]3(CO3)C(=O)[C@H](C)[C@@H](O)[C@@H](C)[C@@H](C)OC(=O)[C@@H]2C)O[C@@H](C)[C@@H]1O (some centres undefined) ?
Result: inactive

Request: Could you check what this test reported for `CCCCOc1ccc(CC(=O)NO)cc1` ?
Result: inactive

Request: Hi, do you know how `CCCCCCCCCCCCC[N+](C)(C)Cc1ccccc1` came out in this test?
Result: active

Request: Give the logged outcome of this assay for the following compound: `CCc1nc(N)nc(N)c1-c1ccc(Cl)cc1`
Result: inactive

Request: // outcome(item) with item = `O=[N+]([O-])O[C@H]1CO[C@H]2[C@@H]1OC[C@H]2O[N+](=O)[O-]`
Result: inactive

Request: Write down the call the test reported for this compound. Item: `CC(C)[N+](C)(CCOC(=O)C1c2ccccc2Oc2ccccc21)C(C)C`
Result: inactive

Request: Status in this test for CC(C(=O)O)c1ccc2c(c1)[nH]c1ccc(Cl)cc12 (centres undefined) ?
Result: inactive

Request: Please indicate how the test categorized O=C1CC(c2ccc(O)cc2)Oc2ccccc21 (centres undefined) .
Result: inactive

Request: I would be grateful if you could indicate the recorded call for `Cc1c(N(C)C)c(=O)n(-c2ccccc2)n1C` .
Result: inactive

Request: Outcome? NC[C@@H]1O[C@H](O[C@@H]2[C@@H](CO)OC(O[C@@H]3[C@@H](O)[C@H](N)C[C@H](N)[C@H]3OC3O[C@H](CN)[C@@H](O)[C@H](O)[C@H]3N)[C@@H]2O)[C@H](N)[C@@H](O)[C@@H]1O (some centres undefined)
Result: inactive

Request: Kindly provide the recorded test outcome for the following compound: `COc1ccc(C(=O)c2ccccc2O)c(O)c1`
Result: inactive

Request: Called result for `Cn1cc[nH]c1=S`
Result: inactive

Request: Please state the recorded outcome for this compound: `COc1ccc(-c2coc3c(OC)c(OC)cc(OC)c3c2=O)cc1`
Result: inactive

Request: Which result was noted for this compound in the test: `CC(C)=CCc1c(O)cc2oc(C)cc(=O)c2c1O`
Result: inactive

Request: Could you kindly confirm the outcome this assay logged for `NC/C=C/C(=O)O` ?
Result: inactive

Request: Query: recorded result category for `O=C1C[C@@H](c2ccc(O)cc2)Oc2cc(O)cc(O)c21` in this test
Result: inactive

Request: State the result this test recorded for `COc1c(CC=C(C)C)c2c(c3oc(=O)c(-c4ccc(OC(C)=O)cc4)c(OC(C)=O)c13)C=CC(C)(C)O2` .
Result: inactive

Request: Hello, I am checking results. What call was entered for `Cc1ccc(O)cc1` ?
Result: inactive

Request: Called result for O[C@H]1C=C2CCN3Cc4cc5c(cc4C(C23)[C@@H]1O)OCO5 (some centres undefined)
Result: active

Request: Tell me the recorded outcome of this test for CCCCCC(=O)O[C@]1(C(C)=O)CCC2C3CCC4=CC(=O)CC[C@]4(C)C3CC[C@@]21C (some centres undefined) .
Result: inactive

Request: Identify the outcome logged in this assay for the compound shown: `Oc1ccc(O)cc1`
Result: inactive

Request: # outcome recorded in this test, key = COc1ccc2c(c1)C1(C)CCC(=O)CC1CC2 (centres undefined)
Result: inactive

Request: What did this assay record as the result for `COc1c(CC=C(C)C)c2c(c3oc(=O)c(-c4ccc(O)cc4)c(O)c13)C=CC(C)(C)O2` ?
Result: inactive

Request: For this compound, state the assay outcome: `Oc1c(Cl)c(Cl)c(Cl)c(Cl)c1Cl`
Result: active

Request: Dear all, I need the recorded test outcome for CC(C)CC1C(=O)N2CCC[C@H]2C2(O)O[C@](NC(=O)C3C=C4c5cccc6[nH]c(Br)c(c56)C[C@H]4N(C)C3)(C(C)C)C(=O)N12 (some centres undefined) , thank you.
Result: inactive

Request: Name the outcome recorded for C[N+](C)(C)CCOP(=O)([O-])OP(=O)(O)OC[C@H]1OC(n2ccc(N)nc2=O)[C@H](O)[C@@H]1O (some centres undefined) in the assay.
Result: inactive

Request: Give the logged outcome of this assay for the following compound: `C=CCc1ccc2c(c1)OCO2`
Result: inactive

Request: Record lookup: outcome of this test for CC(=O)O[C@]1(C(C)=O)CCC2C3C=C(C)C4=CC(=O)CCC4(C)C3CCC21C (some centres undefined) ?
Result: inactive

Request: What call does the record list for `N#Cc1c(Cl)c(Cl)c(Cl)c(C#N)c1Cl` ?
Result: inactive

Request: Look up the recorded call for CC1(O)/C=C/C=C(\CO)C2CC(C)(C)C2(O)CC1 (centres undefined) in this test.
Result: inactive

Request: # fetch the recorded call for COc1cc(OC)c2c(c1)OC(c1ccccc1)CC2=O (centres undefined) here
Result: inactive

Request: Tell me the recorded outcome of this test for `Nc1nc2[nH]c(=O)c(=O)[nH]c2c(=O)[nH]1` .
Result: inactive

Request: I would be grateful if you could indicate the recorded call for CC(=O)O[C@@](C)(CCC=C(C)C)C1CC=C(C)CC1 (some centres undefined) .
Result: inactive

Request: I'd appreciate the recorded outcome for CN1Cc2c(ccc3c2OCO3)C2C(O)Cc3cc4c(cc3C21)OCO4 (centres undefined) from this test.
Result: inactive

Request: What did the test return for `C/C=C(/C(=C/C)c1ccc(O)cc1)c1ccc(O)cc1` ?
Result: active

Request: Identify the outcome logged in this assay for the compound shown: `COc1ccc(-c2coc3c(OC)c(OC)cc(O)c3c2=O)cc1`
Result: inactive

Request: Dear colleague, could you share the recorded outcome for `COC(=O)c1c(Cl)c(Cl)c(C(=O)OC)c(Cl)c1Cl` when you have a moment?
Result: inactive

Request: Given CCCCCC(C)N (centres undefined) , state the outcome it received in this test.
Result: inactive

Request: Check the results log: what was the call for CN1CCc2cc3c(cc2C1O)OCO3 (centres undefined) ?
Result: inactive

Request: Short answer needed: outcome of this test for `CC(=C(CCOP(=O)(O)O)SC(=O)c1ccccc1)N(C=O)Cc1cnc(C)nc1N` ?
Result: inactive

Request: Any idea what this test logged for COc1ccc(C2CC(=O)c3ccc(OC)cc3O2)cc1 (centres undefined) ?
Result: active
